TESTED_ON: Rat SERT (Rattus norvegicus, UniProt P31652)
Construct: A rat brain without cerebellum (Zivic Laboratories, Inc.—Pittsburgh, Pa.) was homogenized; tissue Zivic Laboratories, Inc; host or cells: rat brain without cerebellum, membrane preparation
Sequence (P31652 whole entry): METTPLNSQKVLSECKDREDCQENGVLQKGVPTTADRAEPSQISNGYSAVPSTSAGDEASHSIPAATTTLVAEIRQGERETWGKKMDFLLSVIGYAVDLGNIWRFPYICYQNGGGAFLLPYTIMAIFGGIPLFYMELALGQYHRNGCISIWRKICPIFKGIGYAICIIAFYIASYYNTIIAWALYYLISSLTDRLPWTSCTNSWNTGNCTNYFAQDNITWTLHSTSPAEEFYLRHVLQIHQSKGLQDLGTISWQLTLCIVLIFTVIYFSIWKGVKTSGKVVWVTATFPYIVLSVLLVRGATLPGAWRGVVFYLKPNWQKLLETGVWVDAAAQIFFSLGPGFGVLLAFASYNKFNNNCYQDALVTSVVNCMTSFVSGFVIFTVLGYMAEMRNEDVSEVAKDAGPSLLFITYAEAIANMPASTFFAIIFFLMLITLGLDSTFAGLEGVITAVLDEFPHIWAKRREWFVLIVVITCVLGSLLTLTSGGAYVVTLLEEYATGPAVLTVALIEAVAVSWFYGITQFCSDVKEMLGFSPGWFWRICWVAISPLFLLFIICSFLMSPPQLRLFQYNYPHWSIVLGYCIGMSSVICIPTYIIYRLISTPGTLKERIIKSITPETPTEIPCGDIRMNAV
ASSAY_DETAILS: Rat brain SERT [3H]-citalopram binding
CONDITION_SUMMARY: rat brain membranes, 0.6 nM [3H]-Citalopram, 60 min at 25° C.
Label true (1) when Ki is strictly below 0.9 nM; otherwise label false (0).

>>> print(df.to_string())
                            chemical_smiles  group_label
0  CNCc1cc(C#CCCN2CCSCC2)ccc1Oc1ccc(Cl)c(Cl)c1    false (0)
1   CNCc1cc(C#CCCN2CCOCC2)ccc1Oc1cccc(Cl)c1    false (0)
2  CNCc1cc(C#CCCN(C)C2CC2)ccc1Oc1ccc(Cl)c(Cl)c1    false (0)
3  CNCc1cc(C#CCCN2CCNC(=O)C2)ccc1Oc1ccc(SC)cc1     true (1)
4  CNCc1cc(C#CCCN2CCCN(C(C)C)CC2)ccc1Oc1ccc(SC)cc1     true (1)
